Reference for the values: the supplement of paper PMC10567573

B1: INTS3 (parent)
chain: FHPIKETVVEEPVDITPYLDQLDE

- Variants of: B1
- PROTOCOL_DESCRIPTION: protein stability index of a GFP-peptide fusion (GPS, HEK-293T) (PSI 1-6); higher = more stable;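 further: lentivirally expressed fusions sorted by FACS into six bins by GFP to DsRed ratio, PSI derived from sequencing read proportions per bin multiplied by bin number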
- CONDITIONS: c terminus: a fixed tail appended
Parameter threshold = 4. Response is 1 (yes) when protein stability index meets or exceeds it, else 0 (no).

| SEQUENCE_DATA | ANSWER_LABEL |
| --- | --- |
| FHPIKETVCEEPVDITPYLDQLDE [V9C] | 0 (no) |
| FHPIKETVVEEPVDITPYLDQLVE [D23V] | 0 (no) |
| FHPIKETVVEEPVDITPYLDQLDC [E24C] | 0 (no) |
| SHPIKETVVEEPVDITPYLDQLDE [F1S] | 1 (yes) |
| FHPIKETVVEEPVDITCYLDQLDE [P17C] | 0 (no) |
| FHMIKETVVEEPVDITPYLDQLDE [P3M] | 0 (no) |
| FHPIKETVVEEPVDITPYLDRLDE [Q21R] | 0 (no) |
| FHPIKETVVEEPVDITPYLMQLDE [D20M] | 0 (no) |
| FHPGKETVVEEPVDITPYLDQLDE [I4G] | 1 (yes) |
